Listed next: entries and their corresponding Relative binding activity, %.
- System Tested: T1, Biotin-huCGRPaSA (human, not fully specified; biotin (position not given))
- T1 construct: exact construct ('aSA') not explained; also called Biotin CGRPaSA; full-length (1-37) CGRP
- T1 peptide: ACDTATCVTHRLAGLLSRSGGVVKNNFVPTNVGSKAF
- Test: ELISA, supernatant; relative to chimeric C245

{"columns": ["Binder", "Relative binding activity, %"],
 "data": [
  ["hu12 (antibody, V domains shown, 1B2 HC-1/3H10 LC2-1) VH: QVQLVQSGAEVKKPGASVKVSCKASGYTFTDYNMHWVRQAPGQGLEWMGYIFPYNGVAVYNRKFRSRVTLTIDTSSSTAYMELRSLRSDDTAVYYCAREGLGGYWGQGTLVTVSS VL: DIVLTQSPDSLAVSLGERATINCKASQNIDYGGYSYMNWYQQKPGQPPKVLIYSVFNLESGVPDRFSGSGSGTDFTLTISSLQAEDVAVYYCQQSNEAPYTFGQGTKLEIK", "73%"],
  ["hu58 (antibody, V domains shown, 1F5 HC-3/1F5 LC1-2) VH: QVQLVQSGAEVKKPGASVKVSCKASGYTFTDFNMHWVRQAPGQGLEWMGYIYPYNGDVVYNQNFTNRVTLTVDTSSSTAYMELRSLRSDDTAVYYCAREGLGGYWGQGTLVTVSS VL: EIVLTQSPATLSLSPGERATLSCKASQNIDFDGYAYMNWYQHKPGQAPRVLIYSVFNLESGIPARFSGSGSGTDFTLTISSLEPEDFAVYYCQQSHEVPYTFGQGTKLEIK", "113%"],
  ["hu107 (antibody, V domains shown, 2B8 HC1-1/1A2 LC2-3) VH: QVQLVQSGAEVKKPGASVKVSCKASGYTFTDYNMHWVRQAPGQGLEWMGNIYPYNGGTVYNQKFNNRVTLTVDTSSSTAYMELSRLRSDDTAVYYCAREGLGGYWGQGTLVTVSS VL: EIVLTQSPATLSLSPGERATLSCKASQNIDYDGYAYLNWYQQKPGQAPRVLIYSVFNLESGIPARFSGSGSGTDFTLTISSLEPEDFAVYYCQQSNEFPYTFGQGTKLEIK", "73%"],
  ["hu21 (antibody, V domains shown, 1B2 HC-2/1F5 LC1-4) VH: QVQLVQSGAEVKKPGASVKVSCKASGYTFTDYNMHWVRQAPGQRLEWMGYIFPYNGVAVYNRKFRSRVTLTVDTSSSTAYMELSSLRSEDTAVYYCAREGLGGYWGQGTLVTVSS VL: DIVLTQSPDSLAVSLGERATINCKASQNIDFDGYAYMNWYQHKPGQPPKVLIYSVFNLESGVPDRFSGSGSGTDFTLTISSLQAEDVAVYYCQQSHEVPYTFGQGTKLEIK", "33%"],
  ["hu115 (antibody, V domains shown, 2B8 HC1-1/3E5 LC-1) VH: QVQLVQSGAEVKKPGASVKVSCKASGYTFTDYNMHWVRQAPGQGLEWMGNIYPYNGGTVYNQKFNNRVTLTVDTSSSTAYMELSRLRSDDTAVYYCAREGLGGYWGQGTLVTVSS VL: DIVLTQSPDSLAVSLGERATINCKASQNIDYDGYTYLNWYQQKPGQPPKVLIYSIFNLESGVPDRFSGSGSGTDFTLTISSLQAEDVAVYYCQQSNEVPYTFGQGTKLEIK", "98%"]
]}
